# TESTED_ON: T1, Recombinant cynomolgus IL-18 (cynomolgus monkey, UniProt Q14116 37-193 (human entry))
# T1 chain: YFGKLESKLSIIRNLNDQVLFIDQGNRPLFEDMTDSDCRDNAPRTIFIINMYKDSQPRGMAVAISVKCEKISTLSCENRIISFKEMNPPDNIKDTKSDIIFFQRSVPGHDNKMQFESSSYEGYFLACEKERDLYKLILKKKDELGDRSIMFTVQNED
# PROCEDURE_TEXT: cell-based or functional assay
READOUT: IC50, inhibition of IFN-γ release, KG-1 cells, Cyno IL-18 (0.2 nM)
Write the quantity with the unit trailing the number.

Please look up its IC50, inhibition of IFN-γ release, KG-1 cells, Cyno IL-18 (0.2 nM): MOR13361 (antibody, human IgG1, kappa, L234A L235A, V domains shown) VH: QVQLLESGGGLVQPGGSLRLSCAASGFTFSSYAIHWVRQAPGKGLEWVSTIQSSGENKFYADSVKGRFTISRDNSKNTLYLQMNSLRAEDTAVYYCARVMIGYGFDYWGQGTLVTVSS VL: DIQMTQSPSSLSASVGDRVTITCRASQSIFNYLNWYQQKPGKAPKLLIYDSSTLQSGVPSRFSGSGSGTDFTLTISSLQPEDFATYYCHQYSGLLFTFGQGTKVEIKR
130 pM
